system: SNB-75; test: NCI tumour cell line growth inhibition, 48 h
Active and inactive are the calls of the source. Cut-off read from the data, not from the text of the source: active = GI50 up to about 1.1 µM and inactive = higher.
Bench note: report the call from active, inactive

**Q:** What was the test verdict on CO[C@@H]1C=C[C@@]23c4cc5c(cc4CN(C[C@@H]2O)[C@H]3C1)OCO5 [(+)-HAEMANTHAMINE] ?
**A:** inactive

**Q:** I would be grateful if you could indicate the recorded call for COc1cc(O)c2c(c1)OCC1(Cc3cc(OC)c(OC)cc31)C2=O (centres undefined) .
**A:** inactive

====

test system: HCT-116; assay: NCI tumour cell line growth inhibition, 48 h
The source made the active and inactive calls. Rule as the data show it: active = GI50 up to about 1.1 µM and inactive = higher.
Choose one outcome from this list and give only that: active, inactive

Below, 5 compounds whose answers are already recorded.
Compound	Qualitative Label
CCNc1ncnc2c1nnn2CC	inactive
C#CCCOC(=O)CC1=C(C)/C(=C/c2ccc([S+](C)[O-])cc2)c2ccc(F)cc21 (configuration not stated)	inactive
O=C(O)C12C3CCC(O3)C1(C(=O)O)C1CCC2O1 (configuration not stated)	inactive
COC1=C(OC)CCC(/C(C#N)=C/c2ccc(OC)c(OC)c2)=C1	inactive
C[n+]1c2ccccc2c(CNC(CCC(N)=O)C(=O)O)c2ccccc21 (configuration not stated)	active

**Q:** Test call for this compound, please: CCC(CCN)(CCN)[N+](=O)[O-]
**A:** inactive

**Q:** Which result was noted for this compound in the test: CN(CC1(CO)CCC1)c1cc(Cl)nc(N)n1
**A:** inactive

**Q:** Which outcome was entered for the compound CN/C(=N\CCSCc1nc[nH]c1C)NC#N in this test?
**A:** inactive

**Q:** In this assay, the call recorded for Cc1nc(Cl)c(CBr)c(Cl)n1 was what?
**A:** active

**Q:** Can you look up the reported call for N=C(N)C(/N=N\c1ccccc1)C(N)=O (configuration not stated) for me?
**A:** inactive

**Q:** Record request — test call for O=C(c1ccccc1)N1C(=O)N(c2ccccc2)C(=N/c2ccccc2)/C1=N\c1ccccc1
**A:** inactive

**Q:** In this assay, the call recorded for O=C1OC(c2ccccc2)=N/C1=C/N1CCCC1C(=O)O (configuration not stated) was what?
**A:** inactive

====

tested on: HCT-15; experiment: NCI tumour cell line growth inhibition, 48 h
Readout Type: GI50 (µM)
One number for each entry, in µM.

Molecule	Numeric Value
Cc1ccc2c(n1)C(=O)C=CC2=O	9.48
COC1/C=C/C(C)C(OC)CC(O)/C=C/C(C)C(C(C)C(OC)C(C)CCC(=O)C(C)C(C/C=C/N(C)C=O)OC)OC(=O)/C=C/C=C(\C)CC(OC)CC2=CC(=O)O[C@@H](C(C)C(OC)C1)[C@H]2O (some centres undefined)	0.0556

Hi! Can you tell me GI50 for each of these molecules?
1. O=C(N/N=C/c1cc(Cl)cc(Cl)c1O)c1ccccc1O
2. COC(=O)/C=C\C(C#N)(C#N)/N=C/c1ccc(OC)cc1
3. O=C1/C(=C\c2ccc(Cl)cc2Cl)Sc2scc(-c3cccc([N+](=O)[O-])c3)[n+]21
4. c1ccc(CNCCCNCCCCNCCCNCc2ccccc2)cc1
5. COC(=O)CC(c1ccccc1)C1(c2ccccc2)SCCS1 (centres undefined)
6. C=C(C#N)C1OCC2OC(C)(C)OC21 (centres undefined)
7. CC1C/C(=N\N(C)C)C(C#N)(C#N)C1(C#N)C#N (centres undefined)
8. CSC1=Nc2ccccc2N=C(c2ccc(Cl)cc2)C1

**A:**
0.395
3.85
1.81
15.8
94.8
16.9
4.81
26.9

====

tested on: SW-620; assay: NCI tumour cell line growth inhibition, 48 h
Activity calls are given as the source filed them. Cut-off read from the data, not from the text of the source: active = GI50 up to about 1.1 µM and inactive = higher.
For each entry below, report its GI50 value.

Compound	Result
O=c1cc(-c2ccccc2)oc2cc(Oc3nnnn3-c3ccccc3)ccc12	> 100 µM (inactive)

Report GI50 for every entry below.
1. CCc1c(OC(C)=O)c2c(NC3OCC(OC(C)=O)C(OC(C)=O)C3OC(C)=O)nc(SC)nc2oc1=O (stereo not drawn)
2. CCOP(=O)(OCC)/C(=C/c1cccs1)CC(C)=O

**A:**
> 100 µM (inactive)
> 100 µM (inactive)

====

What GI50 was measured for each of the following?
system: SF-295; experiment: NCI tumour cell line growth inhibition, 48 h
Active and inactive are the calls of the source. Cut-off read from the data, not from the text of the source: active = GI50 up to about 1.1 µM and inactive = higher.

Consider the worked cases shown below.
Compound	Result
O=C1C(=O)N(c2cc(Cl)ccc2Cl)C(=O)C(=O)C1c1nc2ccccc2s1	> 100 µM (inactive)
S=C(S)NCC1CCC(CNC(=S)S)CC1 (configuration not stated)	> 100 µM (inactive)
COC1C=COC2(C)Oc3c(C)c(O)c4c(O)c(c(/C=N/N5CCN(N)CC5)c(O)c4c3C2=O)NC(=O)C(C)=CC=CC(C)C(O)C(C)C(O)C(C)C(OC(C)=O)C1C (configuration not stated)	84.3 µM (inactive)
COC(=O)C1CCCC2(C1)OCCO2 (configuration not stated)	> 100 µM (inactive)
CS(=O)(=O)Nc1ccc(NCc2c[nH]c3ccc4ncccc4c23)cc1	24.2 µM (inactive)
CCC(CCN)(CCN)[N+](=O)[O-]	> 100 µM (inactive)
O=C1/C(=C\c2ccc(Cl)cc2Cl)Sc2scc(-c3cccc([N+](=O)[O-])c3)[n+]21	24.9 µM (inactive)
C=CC(c1ccccc1)C1(O)c2cccc(O)c2C(=O)c2c(O)cccc21 (configuration not stated)	14.9 µM (inactive)
c1cc2c(cc1C1OCC3C(c4ccc5c(c4)OCO5)OCC13)OCO2 (configuration not stated)	87.1 µM (inactive)
COc1cccc(/C=C2\N=C(c3ccccc3)OC2=O)c1	> 100 µM (inactive)

Here are 5 compounds. What values of GI50 were reported for them?
1. Cc1ccc2c(O)cc(-c3csc4ccccc34)nc2n1
2. O=C(N/N=C/c1cccc(F)c1)c1ccncc1
3. CC1(C)CCCC2(C)C3C(O)CC2(C)C(O)C31 (configuration not stated)
4. COC(=O)c1c(O)ccc2c1c1cc3ccccc3c(O)c1n2CCc1ccc(OC)c(OC)c1
5. C=C1CN2CCc3c([nH]c4ccccc34)C2CC1CC(=O)N(C)C (configuration not stated)

**A:**
1: < 0.01 µM (active); 2: > 100 µM (inactive); 3: > 100 µM (inactive); 4: 96.8 µM (inactive); 5: > 309 µM (inactive)

====

system: ACHN; test: NCI tumour cell line growth inhibition, 48 h
The source made the active and inactive calls. Cut-off read from the data, not from the text of the source: active = GI50 up to about 1.1 µM and inactive = higher.
Give GI50 for every item shown.

Each compound below has a reported value. Please supply its GI50.
1. CN(C)/C(=N/C(=O)Nc1ccccc1)SCc1ccccc1
2. CCOC(=O)/C(C(N)=O)=C(/O)c1cnccn1
3. CC1=Nc2c(ccc3c2C(=O)c2ccccc2C3=O)NC(c2ccncc2)C1 (stereo not given)
4. Cc1ccc(S(=O)(=O)N2CCSCCSCCSCCSCC2)cc1

**A:**
> 100 µM (inactive)
> 100 µM (inactive)
6.75 µM (inactive)
> 58.3 µM (inactive)

**Q:** Can you look up the measured GI50 of CO[C@@H]1C=C[C@@]23c4cc5c(cc4CN(C[C@@H]2O)[C@H]3C1)OCO5 [(+)-HAEMANTHAMINE] for me?
**A:** 5.13 µM (inactive)

====

tested on: SF-295; assay: NCI tumour cell line growth inhibition, 48 h
Active and inactive are the calls of the source. Rule as the data show it: active = GI50 up to about 1.1 µM and inactive = higher.
Readout Type: GI50

Compound	GI50
CC1C[C@]2(C)C(NCCN)=Nc3ccccc3[C@@H]2N(C)c2ccccc21 (some centres not stated)	17.9 µM (inactive)
CCOC(=O)[C@@]12C3C=CC(CC3)[C@]1(C(=O)c1ccccc1)C(=O)C(=O)N2c1ccccc1 (some centres not stated)	> 100 µM (inactive)
O=C(O)[C@@H]1CCS(=O)(=O)N1	> 100 µM (inactive)

Quick batch: GI50 for everything below.
1. O=C1C[C@@H](c2ccccc2)O[C@@H](c2ccccc2)C1
2. CCN(CC)c1c(C)nnn1C1OC(COC(C)=O)C(OC(C)=O)C(OC(C)=O)C1OC(C)=O (configuration not stated)
3. O/N=C1/CCCc2nonc21

**A:**
1. > 100 µM (inactive)
2. > 100 µM (inactive)
3. > 100 µM (inactive)

Give GI50 for each listed item.
1. COc1ccc2c(c1)O[C@@H]1[C@@H](OC3OC(CO)C(O)C(O)C3O)Oc3cc(OC)c(OC)cc3[C@]1(O)C2=O (some centres not stated)
2. N#CCCN(CCCN(C(=O)Nc1ccc(NC(=O)N(CCCN(CCC#N)C(N)=O)c2ccccc2)cc1)c1ccccc1)C(N)=O
3. Cc1c2cccc-2c(OCCO)cc2c3ccccc3n(C)c12
4. CC(C)(C)/C(O)=C\c1nc2ccc(C(F)(F)F)cc2[nH]c1=O

**A:**
> 100 µM (inactive)
> 100 µM (inactive)
3.67 µM (inactive)
> 100 µM (inactive)

// each listed compound needs a value for GI50
1. CC1(c2cccc(C3CC4(CCC3=O)OCCCCO4)c2)OCCO1 (configuration not stated)
2. O=C1c2cc3c(cc2CC12Cc1cc4c(cc1C2=O)CCC4)CCCC3 (configuration not stated)
3. COc1ccc(NC(=O)CC/C(CC(=O)C(C)(C)C)=N\NC(=O)C(N)=O)cc1
4. N#C[BH2-][n+]1ccc(C(=O)NNCc2ccc(F)cc2)cc1
5. CC(=O)Oc1ccc(OC(Oc2ccccc2)c2ccccc2)cc1 (configuration not stated)
6. CC(=O)OC[C@H]1CN(OC(C)=O)C[C@@H](n2cc(C)c(=O)[nH]c2=O)O1
7. N=C(N)C(/N=N\c1ccccc1)C(N)=O (configuration not stated)

**A:**
1. > 100 µM (inactive)
2. > 100 µM (inactive)
3. > 100 µM (inactive)
4. > 100 µM (inactive)
5. 29.6 µM (inactive)
6. > 100 µM (inactive)
7. 62.8 µM (inactive)
